System: kochia (Kochia scoparia)
assay name: Test A preemergence, visual injury rating 0-100
Assay type: in vivo
conditions: 500 g ai/ha
Exercise: state measured Kochia plant response rating (0 to 100 scale) for each of the molecules provided.

CC1=[N+]([O-])[C@@H](C(=O)Nc2cccc(F)c2F)[C@H](c2cccc(Oc3ccc(F)cn3)c2)C1 : 50
CC1=[N+]([O-])[C@H](C(=O)Nc2cccc(F)c2F)[C@@H](c2ccc(C(F)(F)F)c(F)c2)C1 (relative stereo) : 80
CC1=[N+]([O-])C(C(=O)Nc2cccc(F)c2F)C(c2ccc(C(F)(F)F)cc2F)C1 (stereo not shown) : 90
CC1=[N+]([O-])[C@H](C(=O)Nc2ccc(F)nc2F)[C@@H](c2ccc(C(F)(F)F)cc2)C1 (relative stereo) : 90
CCC1=[N+]([O-])C(C(=O)Nc2cccc(F)c2F)C(c2ccc(C(F)(F)F)cc2)C1 (racemic) : 70

Go through the items and report each one's Kochia plant response rating (0 to 100 scale).
1. CC(C)C1=[N+]([O-])C(C(=O)Nc2cccc(F)c2F)C(c2ccc(C(F)(F)F)cc2)C1 (racemic)
2. CC1=[N+]([O-])C(C(=O)Nc2cccc(F)c2F)C(c2ccc(C(F)(F)F)c(C)c2)C1 (racemic)

1. 0
2. 80

---

Assignment: determine reported Barnyardgrass plant response rating for the given molecules.
Tested on: barnyardgrass (Echinochloa crus-galli)
assay name: Test A postemergence, visual injury rating 0-100
Format: in vivo
conditions: 125 g ai/ha, 0 to 100 scale
Answers are plain numbers.

Each molecule below has a reported value. Please supply its Barnyardgrass plant response rating.
1. CC1=[N+]([O-])C(C(=O)Nc2cccc(F)c2F)C(c2c(F)cccc2Cl)C1 (racemic)
2. CC1=[N+]([O-])C(C(=O)Nc2ccccc2)C(c2ccc(F)c(F)c2)C1 (racemic)

1. 0
2. 0

Would you mind giving Barnyardgrass plant response rating for every molecule in the list below?
1. CC1=[N+]([O-])C(C(=O)Nc2ccccc2[S+](C)[O-])C(c2ccc(C(F)(F)F)cc2)C1 (racemic)
2. CC1=[N+]([O-])C(C(=O)Nc2cccc(F)c2F)C(c2cc(C)cc(C(F)(F)F)c2)C1 (stereo not drawn)
3. CSc1ccccc1NC(=O)C1C(c2ccc(C(F)(F)F)cc2)CC(C)=[N+]1[O-] (racemic)
4. CC1=[N+]([O-])C(C(=O)Nc2cccc(F)c2F)C(c2ccc(=O)n(Cc3ccc(Cl)cc3)c2)C1 (racemic)

0
70
10
0

Need Barnyardgrass plant response rating for each of these molecules.
1. CC1=[N+]([O-])[C@@H](C(=O)Nc2cccc(F)c2F)[C@H](c2cccc(Oc3ncc(F)cc3F)c2)C1
2. CC1=[N+]([O-])C(C(=O)Nc2cccc(F)c2F)C(c2ccc(C(F)(F)F)cc2F)C1 (stereo not drawn)
3. CC1=[N+]([O-])C(C(=O)Nc2cccc(F)c2F)C(c2cccc(C)n2)C1 (racemic)
4. CC1=[N+]([O-])C(C(=O)Nc2cccc(F)c2F)C(c2ccc(F)c(Oc3ncc(F)cn3)c2)C1 (racemic)
5. CC1=[N+]([O-])C(C(=O)Nc2cccc(F)c2F)C(c2ccc(C(F)(F)F)c(C)c2)C1 (racemic)

[70, 50, 0, 30, 80]

Please state Barnyardgrass plant response rating for every molecule in the list that follows.
1. CC1=[N+]([O-])C(C(=O)Nc2cccnc2F)C(c2ccc(C(F)(F)F)cc2)C1 (racemic)
2. CC1=[N+]([O-])C(C(=O)Nc2ccccc2C#N)C(c2ccc(C(F)(F)F)cc2)C1 (racemic)
3. CC1=[N+]([O-])[C@H](C(=O)Nc2cccc(F)c2F)[C@@H](c2ccc3c(c2)OC(F)(F)O3)C1 (relative stereo)
4. CC1=[N+]([O-])C(C(=O)Nc2cccc(F)c2F)C(c2ccc(Br)cc2)C1 (racemic)

1. 30
2. 20
3. 70
4. 10

---

Test system: ragweed (common ragweed, Ambrosia elatior)
assay name: Test A postemergence, visual injury rating 0-100
Format: in vivo
conditions: 500 g ai/ha, 0 to 100 scale
observed property: Ragweed plant response rating
Give bare numbers.

A selection of reference data follows.
CC1=[N+]([O-])C(C(=O)Nc2cccc(F)c2F)C(c2ccc3c(c2)OCO3)C1 (racemic) : 50
CC1=[N+]([O-])C(C(=O)Nc2cccc(F)c2F)C(c2cc(C)cc(F)c2)C1 (racemic) : 40
CC1=[N+]([O-])C(C(=O)Nc2cccc(F)c2F)C(c2cccc(C)c2C)C1 (racemic) : 60
CC1=[N+]([O-])C(C(=O)Nc2cccc(F)c2F)C(c2ccc(F)c(Oc3ncc(F)cn3)c2)C1 (racemic) : 30
CC1=[N+]([O-])C(C(=O)Nc2cccc(F)c2F)C(c2cccc(Cl)c2C)C1 (racemic) : 60
CC1=[N+]([O-])C(C(=O)Nc2cccc(F)c2F)C(c2ccc(C(F)(F)F)cn2)C1 (racemic) : 10

// next entry
Looking up CC1=[N+]([O-])C(C(=O)Nc2cccc(F)c2F)C(c2c(F)cccc2Cl)C1 (racemic) , I found its Ragweed plant response rating recorded as 0

---

System: barnyardgrass (Echinochloa crus-galli)
assay name: Test A postemergence, visual injury rating 0-100
Assay type: in vivo
conditions: 125 g ai/ha, 0 to 100 scale
Please provide measured Barnyardgrass plant response rating for the entries that follow.

Provide the reported Barnyardgrass plant response rating of each entry below, same order.
1. CC1=[N+]([O-])C(C(=O)Nc2cccc(F)c2F)C(c2cccc(C)c2)C1 (racemic) [Compound 15]
2. CC1=[N+]([O-])C(C(=O)Nc2cccc(F)c2F)C(c2cc(F)cc(Oc3ccc(Cl)nc3)c2)C1 (racemic) [Compound 50]
3. CC1=[N+]([O-])C(C(=O)Nc2cccc(F)c2F)C(c2cc(C(F)(F)F)ccc2C)C1 (centres unmarked) [Compound 98]
4. CC1=[N+]([O-])C(C(=O)Nc2cccc(F)c2F)C(c2ccc(C(F)(F)F)c(Cl)c2)C1 (racemic) [Compound 102]
5. CC1=[N+]([O-])C(C(=O)Nc2cccc(F)c2F)C(c2cccc(Cl)c2F)C1 (centres unmarked) [Compound 99]
6. CC1=[N+]([O-])C(C(=O)Nc2ccc(F)cc2F)C(c2ccc(C(F)(F)F)cc2)C1 (racemic) [Compound 46]

1: 90; 2: 0; 3: 70; 4: 70; 5: 90; 6: 10

Provide each entry's Barnyardgrass plant response rating from the list below.
1. CC1=[N+]([O-])[C@H](C(=O)Nc2cccc(F)c2F)[C@@H](c2ccc(C(F)(F)F)c(F)c2)C1 (relative stereo) [Compound 61]
2. CC1=[N+]([O-])[C@@H](C(=O)Nc2cccc(F)c2F)[C@H](c2cccc(OC(C)(C)C)c2)C1 [Compound 69]

1: 70; 2: 70

---

Test system: barnyardgrass (Echinochloa crus-galli)
assay name: Test A postemergence, visual injury rating 0-100
Type: in vivo
conditions: 125 g ai/ha, 0 to 100 scale
Output condition met for records whose Barnyardgrass plant response rating is lower than 70, condition not met for records at or above 70.

CCOc1cc(OC)cc(C2CC(C)=[N+]([O-])C2C(=O)Nc2cccc(F)c2F)c1 (racemic) : condition met

Consider CC1=[N+]([O-])[C@@H](C(=O)Nc2cccc(F)c2F)[C@H](c2cccc(Oc3ccc(F)cn3)c2)C1 . Does its Barnyardgrass plant response rating lie strictly below 70?
condition met

I wonder whether CC1=[N+]([O-])C(C(=O)Nc2ccc(F)c(F)c2F)C(c2ccc(C(F)(F)F)cc2)C1 (racemic) has Barnyardgrass plant response rating below 70. Can you tell?
condition not met

Criterion: Barnyardgrass plant response rating strictly below 70. Is it met by CC1=[N+]([O-])C(C(=O)Nc2cccc(F)c2F)C(c2ccc(C)c(Cl)c2)C1 (racemic) ?
condition not met

Consider the molecule CC1=[N+]([O-])C(C(=O)Nc2cccc(F)c2F)C(c2cccc(Br)c2)C1 (racemic) . Is its Barnyardgrass plant response rating strictly less than 70?
condition met

Consider CC1=[N+]([O-])C(C(=O)Nc2cccc(F)c2F)C(c2cccc(Br)n2)C1 (racemic) . Does its Barnyardgrass plant response rating lie strictly below 70?
condition met

Report whether reported Barnyardgrass plant response rating is lower than 70 (strictly) for CC1=[N+]([O-])C(C(=O)Nc2ccccc2C(F)(F)F)C(c2ccc(C(F)(F)F)cc2)C1 (racemic)
condition met

hey, is Barnyardgrass plant response rating for COc1cc(OC)cc(C2CC(C)=[N+]([O-])C2C(=O)Nc2cccc(F)c2F)c1 (stereo not drawn) lower than 70 or not?
condition met

Say whether its Barnyardgrass plant response rating is strictly beneath 70. Entry: CC1=[N+]([O-])C(C(=O)Nc2cccc(F)c2F)C(c2ccc(Cl)c(C(F)(F)F)c2)C1 (racemic)
condition met

# check: Barnyardgrass plant response rating < 70 for CC1=[N+]([O-])C(C(=O)Nc2cccc(F)c2F)C(c2cccc(F)c2)C1 (racemic)
condition met

Barnyardgrass plant response rating strictly < 70 for this molecule? CC1=[N+]([O-])C(C(=O)Nc2cccc(F)c2F)C(c2ccc(C#N)cc2)C1 (racemic)
condition met

Record CC1=[N+]([O-])C(C(=O)Nc2cccc(F)c2F)C(c2cc(F)ccc2C)C1 (racemic) : is its Barnyardgrass plant response rating strictly below 70?
condition not met

In the record for COc1cccc(C2CC(C)=[N+]([O-])C2C(=O)Nc2cccc(F)c2F)n1 (racemic) , is Barnyardgrass plant response rating less than 70?
condition met

Attribution: patent US11498899B2
